TARGET ENTITY: Shiga toxin 2 (Escherichia coli O157:H7) (UniProt P09385+P09386)
EXPERIMENT: E. coli 0.157:H7 Shiga Toxin SOP - stx2 screening assay
Assay type: functional
Set-up: scale not given: direction of the effect not stated beside the values
TEST SETTINGS: 30 µM
Property: Percent Effect; scope: individual compounds
ASSAY READOUT: Percent Effect (%)

> print(dat)
                                    compound  numeric.value
 1    CCc1nc(C)c(C(=O)NCCN2CCN(C(C)=O)CC2)s1          -21.7
 2      COCCn1nc(C(=O)N(C)Cc2cnn(C)c2)ccc1=O           9.25
 3  Cc1ccc(N2CCCC(NCC(=O)Nc3cc(C)no3)C2)nn1 (configuration not stated)          -55.3
 4  CC(=O)N1CCN(C(=O)C(C)n2cncn2)CC1 (configuration not stated)           1.67
 5       CCn1cnnc1CNC(=O)N(C)Cc1ccc(F)c(F)c1           18.2
 6  NC[C@H]1CC[C@H](C(NC(=O)c2ccccc2)c2ccccn2)CC1 (some centres not stated)          -25.2
 7  OCCC1CN(C2CCC2)CCN1C1CCCC1 (configuration not stated)           7.89
 8  CCC(CC)C(CNC(=O)Nc1ccc(C)cc1)N1CCOCC1 (configuration not stated)          -3.64
 9           CCOc1cccc(CNc2ccccc2C(=O)OC)c1O          -53.6
10   Cn1cnnc1CNC(=O)Nc1cc(C(F)(F)F)c[nH]c1=O           27.2
11  CCc1nnc2n1CC(CNCc1ccncc1)CC2 (configuration not stated)          -13.5
12  Cn1cc(N2CCC3(CCN(Cc4nccs4)C3)C2=O)cn1 (configuration not stated)           -2.2

Values compiled from ChEMBL document CHEMBL3988442.
